experimental-protocol: yeast display, Sf9 membrane polyspecificity reagent, FACS + sequencing; frameworks hold sequencing errors
property: polyreactivity (PSR sort gate)

So what does the record say about polyreactivity (PSR sort gate) for QVQLVESGGGLVQAGGSLRLSCAASGRIFSVKVMGWYRQAPGKERELVAAITWSVGSTYYADSVKGRFTISRDNPKNTVSLQMNSLKREDTAVYYCAARGPPVYGRVGGYHYWGQGTQVTVSS ?
low polyreactivity

So what does the record say about polyreactivity (PSR sort gate) for QVQLVESGGGLVQAGGSLRLSCAASGSTYIVYAMGWYRQAPGKERELVAAIRGRGGSTYYADSVKGRFTISRDNAKNTVYLQMNSLKPEVTAVYYCAARGISPLEMYYWGQGTQVTVSS ?
high polyreactivity

So what does the record say about polyreactivity (PSR sort gate) for QVQLVESGGGLVQAGGSLRLSCAASGIIFRYYAMGWYRQAPGKERELVATITIGGRTNYADSVKGRFTISRDNAKNTVYLQMNCLKPEDTAVYYCASRVYKYGSVYHRYDYWGQGTQVTVSS ?
high polyreactivity

So what does the record say about polyreactivity (PSR sort gate) for QVQLVESGGGLVQAGGSLRLSCAASGRIFVWNTMGWYRQAPGKERELVAAITSGGSTTYADSVKGRFTISRDNAKNSVSFQMNSLKPEDTAVYYCNTELDLYHPGDDYWGQGTQVTVSS ?
high polyreactivity

So what does the record say about polyreactivity (PSR sort gate) for QVQLVESGGGLVQAGGSLRLSCAASGSIFYRYAMGWYRQAPGKERELVAAIRWSGGSTYYADSVKGRFTISRDNAKNTVYLQMNSLKPEDTAVYYCNGTWAYRGHGYWGQGTQVTVSS ?
low polyreactivity

Continuing:
So what does the record say about polyreactivity (PSR sort gate) for PVQLVESGGGLVQAGGSLRLSCAASGSIFVTYAMGWYRQAPGKERELVATITYSGGSTSYADSVKGRFTISRDNAKNTVYLQMNSLKPEDTAVYYCAADLDSDFDYWGQGTQVTVSS ?
low polyreactivity

So what does the record say about polyreactivity (PSR sort gate) for QVHLVESGGGLVPAGGSLRLTCAASGSTLWFNAMRWYRQAPGKERELVAAISFYSGSTYYSDSVKGRFTISRDNANNTVYLQMNSLKPEDTAVYYCAARRRWWGYDYWGQATQVTVSS ?
high polyreactivity

So what does the record say about polyreactivity (PSR sort gate) for QVQLVESGGGLVQAGGSLRLSCATSGRTFSQYAMGWYRQAPGKERELVAVISGSGGSTYYADSVKGRFTISRDNAKNTVYLQINSLKPEDTAVYYCAKRATSWHQYDYWGQGTQVTVSS ?
low polyreactivity

So what does the record say about polyreactivity (PSR sort gate) for QVQLVESGGGLVQAGGSLRLSCAASGFTFYVYAMGWYRQAPGKEREFVAAISSSGGSTYYADSVKGRFTISRDNAKNTVYLQMNSLKPEDTAVYYSAALAYSTTRGRLDYWGQGTQVTVSS ?
high polyreactivity

So what does the record say about polyreactivity (PSR sort gate) for QVQLVESGGGLVQAGGSLRLSCAASGSTFWPYAMGWFRQAPGTERELVAAITWSGGRTYYADSVKGRFTLSRDNAKNTVYLQMNSLKPEDTAVYYCAAYYRQGIAPNGFDYWGQGTQVTVSS ?
high polyreactivity

So what does the record say about polyreactivity (PSR sort gate) for QVQLVESGGGLVQAGGSLRLSCAASGRIFRGYGMAWYRQAPGKERELVAAISRGGNTDYADSVKGRFTISRDNANNTVYLQMNSLKPEETAVYYCAVGYVSYRKLYLYNSWGQGTQVTVSS ?
high polyreactivity

So what does the record say about polyreactivity (PSR sort gate) for QVQLVESGGGLVQAGGSLRLSCAASGRTFVYNAMGWYRQAPGKERELVAGITNGGSTNYADSVKGRFTISRDNAKNTVYLQMNSLKPEDTAVYYCAADSRVYPYYFGDFGYWGQGTQVTVSS ?
low polyreactivity

So what does the record say about polyreactivity (PSR sort gate) for QVQLVESGGGLVQAGGSLRLSCAASGSIFISYDIGWYRHAPGKETELVAAIRSRVGSTYYADSVKGRFTISRDNAKNTVYLQMKSLKPEDTAVYYCNKDNAVDRLPWFQVTYEYWGQGTQVTVSS ?
low polyreactivity
